- Test Name: Growth inhibition of human BSY1 cells measured after 48 hrs by sulforhodamine B assay
- Assay type: functional
- Measurement Parameters: BSY-1
Listing of recorded GI50 by entry.
Numeric answer only, unit µM assumed.

Reference set, count: 2
- Compound: "O=c1c(-c2ccc(O)cc2)coc2cc(O)cc(O)c12"
  Readout Number: 43.7
- Compound: "CC(C)(O)[C@@H]1Cc2c(cc(O)c3c(=O)c(-c4ccc(O)cc4)coc23)O1"
  Readout Number: 0.631

# return recorded GI50 for input COc1cc([C@@H]2c3cc4c(cc3[C@@H](O[C@@H]3O[C@@H]5CO[C@@H](C)O[C@H]5[C@H](O)[C@H]3O)[C@H]3COC(=O)[C@H]23)OCO4)cc(OC)c1O [ETOPOSIDE]
5.37

----------
Catalogue of GI50 values
- Test system: DMS-114
- Test Name: Growth inhibition of human DMS-114 cells measured after 48 hrs by sulforhodamine B assay
- Assay type: functional
Response body: numeric value in nM, unit text excluded.

Reference set (2 entries):
- Compound: "O=c1c(-c2ccc(O)cc2)coc2cc(O)cc(O)c12 [GENISTEIN]"
  Readout Number: 49000
- Compound: "COc1cc([C@@H]2c3cc4c(cc3[C@@H](O[C@@H]3O[C@@H]5CO[C@@H](C)O[C@H]5[C@H](O)[C@H]3O)[C@H]3COC(=O)[C@H]23)OCO4)cc(OC)c1O [ETOPOSIDE]"
  Readout Number: 2880

Please report GI50 for the following compound: CC(C)(O)[C@@H]1Cc2c(cc(O)c3c(=O)c(-c4ccc(O)cc4)coc23)O1
380

----------
- Test system: LOX IMVI
- Test Name: Growth inhibition of human LOX IMVI cells measured after 48 hrs by sulforhodamine B assay
- Type: functional
Attribute Measured: GI50

- Compound: "CC(C)(O)[C@@H]1Cc2c(cc(O)c3c(=O)c(-c4ccc(O)cc4)coc23)O1"
  System Tested: "LOX IMVI"
  GI50: "0.257 µM"

Report value: GI50, system: LOX IMVI, compound: O=c1c(-c2ccc(O)cc2)coc2cc(O)cc(O)c12
18.2 µM

For LOX IMVI, give GI50 of the listed compound: COc1cc([C@@H]2c3cc4c(cc3[C@@H](O[C@@H]3O[C@@H]5CO[C@@H](C)O[C@H]5[C@H](O)[C@H]3O)[C@H]3COC(=O)[C@H]23)OCO4)cc(OC)c1O [ETOPOSIDE]
3.47 µM

Look up LOX IMVI data: GI50 of CC(C)(O)[C@H]1Cc2c(cc(O)c3c(=O)c(-c4ccc(O)cc4)coc23)O1 , then report it.
> 100 µM

----------
Consider the following molecules and their measured GI50 readings.
- Test system: NCI-H522
- Test Name: Growth inhibition of human NCI-H522 cells measured after 48 hrs by sulforhodamine B assay
- Assay type: functional
Please reply with the bare figure in µM and do not write the unit itself.

Reference set, count: 2
- Molecule: "O=c1c(-c2ccc(O)cc2)coc2cc(O)cc(O)c12"
  Readout Number: 17.8
- Molecule: "CC(C)(O)[C@@H]1Cc2c(cc(O)c3c(=O)c(-c4ccc(O)cc4)coc23)O1"
  Readout Number: 1.58

Look up GI50 of COc1cc([C@@H]2c3cc4c(cc3[C@@H](O[C@@H]3O[C@@H]5CO[C@@H](C)O[C@H]5[C@H](O)[C@H]3O)[C@H]3COC(=O)[C@H]23)OCO4)cc(OC)c1O [ETOPOSIDE] and report it.
4.68

Given CC(C)(O)[C@H]1Cc2c(cc(O)c3c(=O)c(-c4ccc(O)cc4)coc23)O1 , respond with its GI50.
47.9
